Assay: basal 3T3-L1 adipocyte mitochondrial potential changes, profiling panel, cell-based, JC-1 fluorescence, 3T3-L1 adipocytes, 24 h, 100 nL compound (AID 1168); note: test concentration not given here
Measurement conditions: JC-1 mitochondrial fluorescence, higher = more signal, called active from +8 up or from −8 down
Some compounds, each annotated with its measured z-score.

Smiles str: C=CCNC(=O)[C@H]1[C@@H]2C(=O)O[C@@H](c3ccccc3)[C@@H](c3ccccc3)N2[C@@H](c2ccc(OCCO)cc2)[C@]12C(=O)N(C(=O)OCCOC)c1ccc(C#CCC(C(=O)OC)C(=O)OC)cc12
z-score: 0.566
--
Smiles str: C=CCOC(=O)[C@@H]1[C@H]2C(=O)O[C@H](c3ccccc3)[C@H](c3ccccc3)N2[C@H](c2ccc(OCCOC(=O)[C@H]3C[C@H]4C(=O)N[C@@H](CCCCN(C)C)C(=O)N4[C@H]3c3cccc(OCCO)c3)cc2)[C@@]12C(=O)Nc1ccccc12
z-score: -0.5

* * *

Tested target: Pro-neuregulin-1, membrane-bound isoform (Homo sapiens) (UniProt Q02297)
Sequence (Q02297 whole entry, looked up, canonical isoform): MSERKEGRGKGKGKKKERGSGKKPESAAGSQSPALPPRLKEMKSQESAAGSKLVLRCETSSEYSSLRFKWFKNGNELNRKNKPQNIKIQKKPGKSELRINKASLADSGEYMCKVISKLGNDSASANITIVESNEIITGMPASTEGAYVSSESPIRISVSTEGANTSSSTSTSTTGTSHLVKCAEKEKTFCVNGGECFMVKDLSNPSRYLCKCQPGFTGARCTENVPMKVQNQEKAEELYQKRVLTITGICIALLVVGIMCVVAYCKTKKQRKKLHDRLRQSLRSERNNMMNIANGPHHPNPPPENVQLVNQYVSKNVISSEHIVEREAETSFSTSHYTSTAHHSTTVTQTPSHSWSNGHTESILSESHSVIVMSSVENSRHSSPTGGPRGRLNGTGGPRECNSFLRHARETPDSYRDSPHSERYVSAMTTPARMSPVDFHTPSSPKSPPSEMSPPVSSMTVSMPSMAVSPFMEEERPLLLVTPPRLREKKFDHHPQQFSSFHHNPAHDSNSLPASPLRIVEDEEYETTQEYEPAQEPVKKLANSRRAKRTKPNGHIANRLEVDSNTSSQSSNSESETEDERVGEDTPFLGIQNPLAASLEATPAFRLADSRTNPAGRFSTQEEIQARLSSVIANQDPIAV
Assay: NRG1 binders on small-molecule microarrays, primary screen, psychiatric disease protein project, biochemical, small-molecule microarray, fluorescence 635/667 (AID 1075);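 note: score combines 667 nm spot fluorescence with signal to noise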
Measurement conditions: NRG1 binding, 635 nm fluorescence, higher = more signal
Some molecules, each annotated with its measured composite z-score.

Smiles str: CC(C)C[C@@H]1NC(=O)[C@@H]2C[C@H](C(=O)NCCCCCNC(=O)CS)[C@H](c3ccc(O)cc3)N2C1=O
composite z-score: 1.75

Smiles str: COCCOC(=O)N1C(=O)[C@@]2(c3cc(C#CCCO)ccc31)[C@H](C(=O)N1CCN(c3ncccn3)CC1)[C@H]1C(=O)O[C@H](c3ccccc3)[C@H](c3ccccc3)N1[C@@H]2c1ccc(OCCO)cc1
composite z-score: 1.53

Smiles str: C=CCOC(=O)[C@@H]1[C@H]2C(=O)O[C@H](c3ccccc3)[C@H](c3ccccc3)N2[C@H](c2ccc(OCCOC(=O)[C@H]3C[C@H]4C(=O)N[C@@H](CCCCN(C)C)C(=O)N4[C@H]3c3cccc(OCCO)c3)cc2)[C@@]12C(=O)Nc1ccccc12
composite z-score: 1.96

Smiles str: COC(=O)[C@@]1(Cc2ccc(F)cc2)[C@H]2c3cc(C(=O)N(C)C)n(CCF)c3C[C@H]2CN1C(=O)c1ccccc1
composite z-score: 1.83

Smiles str: CCOC(=O)C[C@H]1[C@H](OC(=O)c2ccc(-c3ccccc3)cc2)[C@@H](NC(=O)c2ccc(-c3ccccc3)cc2)c2cc(OCCCO)ccc2N1C(=O)c1ccccc1
composite z-score: 0.534

* * *

Assay: anti-His antibody binders, primary screen, artefact control for SMM control protein annotation, biochemical, small-molecule microarray, 635 nm fluorescence (AID 1128);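 note: score merges feature fluorescence with signal-to-noise for each printed compound spot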
Measurement conditions: anti-His Alexa647 antibody binding, higher = more signal
Some molecules, each annotated with its measured composite z-score.

Molecule: Cc1ccc(S[C@]2(C(=O)NC(C)C)CC(=O)N(Cc3ccccc3)[C@@H]2c2ccc(CO)cc2)cc1
composite z-score: 0.0893

Molecule: COC(=O)[C@@]1(Cc2ccc(F)cc2)[C@@H]2C(=CC(=O)[C@H]2CC(=O)C(=O)N2CCCC2)CN1C(=O)c1ccccc1
composite z-score: 0.323

Molecule: CCCCN1CC=CC23O[C@@H]4/C=C\CCCOC(=O)C4[C@H]2C(=O)N(CCCCCCO)[C@@H]3C1=O (some centres not stated)
composite z-score: 0.193

Molecule: CCOC(=O)C[C@H]1[C@H](OC(=O)c2ccccc2-c2ccccc2)[C@@H](NC(=O)CC(C)C)c2cc(OCCCO)ccc2N1C(=O)c1ccccc1
composite z-score: -0.229

Molecule: CN1C(=O)C2C=CC(C(O)c3cccs3)N(N(c3ccccc3)c3ccccc3)C2C1=O (configuration not stated)
composite z-score: 2.34

Molecule: [N-]=[N+]=NCc1ccccc1C[C@]1(C(=O)N2CCCCC2)COC(c2ccc(OCCCO)cc2)=N1
composite z-score: 1.13

Molecule: COc1ccc([Si](C)(C)[C@H]2[C@H](CC(=O)N3CCC[C@H]3CO)O[C@@]3(C(=O)N(Cc4cccc(N5CCCCC5=O)c4)c4ccccc43)[C@@H]2C)cc1
composite z-score: 0.999
